Sourced from paper PMC5267326

Tested on: FGF2 binding to cell surface heparan sulfate (wild-type CHO cells)
ASSAY EXPLANATION: Inhibition of FGF2 binding to cell surface HS on wild-type CHO cells
EXPERIMENTAL PARAMETERS: read-out: IC50 against FGF2 binding, biotinylated FGF2 2.5 nM, on ice, mean ± SD of n = 3–4
Recorded IC50 for the following compounds

> print(dat)
                         structure.notation                              assay.system  observed.result
1               CC(=O)Nc1ccc2nc(C)cc(N)c2c1  FGF2 binding to cell surface heparan sulfate (wild-type CHO cells)         > 100 µM
2  COc1cc(C)nc2ccc(NC(=O)Nc3ccc4nc(C)cc(OC)c4c3)cc12  FGF2 binding to cell surface heparan sulfate (wild-type CHO cells)         > 100 µM
3  Cc1ccc2cc(NC(=O)Nc3ccc4nc(C)ccc4c3)ccc2n1  FGF2 binding to cell surface heparan sulfate (wild-type CHO cells)         > 100 µM
4  Cc1cc(N)c2cc(NC(=S)Nc3ccc4nc(C)cc(N)c4c3)ccc2n1  FGF2 binding to cell surface heparan sulfate (wild-type CHO cells)             8 µM

# context switch: different compound, same IC50
Given the entry Cc1cc(N)c2cc(NC(N)=O)ccc2n1 , report its measured IC50. > 100 µM

====

Tested on: soluble RAGE (sRAGE) binding to cell surface HS
ASSAY EXPLANATION: Inhibition of sRAGE binding to cell surface HS on CHO cells
EXPERIMENTAL PARAMETERS: read-out: IC50 inhibition of sRAGE binding to HS; CHO cells, biotinylated sRAGE 2 μg mL^–1
pIC50: −log10 of the molar value.
RESULT TYPE: pIC50

Given the entry CC(=O)Nc1ccc2nc(C)cc(N)c2c1 , report its measured pIC50. < 4.00
